Listed here: items and their measured Ratio of IC50 (Compound)/IC50 6-ABT-1.
- SYSTEM NAME: recombinant uPAR (Homo sapiens)
- Construct: purchased R&D systems
- ASSAY INFO: Competitive ELISA uPAR binding assay (displacement of uPAR from immobilized urokinase)
- ASSAY SETUP: relative to control 6-ABT-1
PROPERTY: Ratio of IC50 (Compound)/IC50 6-ABT-1

>  <SMILES ENTRY>
O=C1c2ccccc2-c2onc3c(N4CCC(C(=O)NCCCOCCOCCOCCCNc5ccc([N+](=O)[O-])cc5[N+](=O)[O-])CC4)cc(Nc4ccc(Cl)cc4S(=O)(=O)O)c1c23

>  <MEAS VALUE>
0.255

$$$$
>  <SMILES ENTRY>
O=C1c2ccccc2-c2onc3c(N4CCC(C(=O)NCCCOCCOCCOCCCNc5ccc([N+](=O)[O-])cc5[N+](=O)[O-])CC4)cc(Nc4cc(S(=O)(=O)O)ccc4S(=O)(=O)O)c1c23

>  <MEAS VALUE>
0.81

$$$$
>  <SMILES ENTRY>
O=C1c2ccccc2-c2onc3c(N4CCC(C(=O)NCCCOCCOCCOCCCNc5ccc([N+](=O)[O-])cc5[N+](=O)[O-])CC4)cc(Nc4ccc(S(=O)(=O)O)cc4)c1c23

>  <MEAS VALUE>
1.15

$$$$
>  <SMILES ENTRY>
O=C1c2ccccc2-c2onc3c(N4CCC(C(=O)NCCCOCCOCCOCCCNc5ccc([N+](=O)[O-])cc5[N+](=O)[O-])CC4)cc(Nc4ccc(S(=O)(=O)O)cc4S(=O)(=O)O)c1c23

>  <MEAS VALUE>
0.7

$$$$
>  <SMILES ENTRY>
CCOC(=O)c1cn(C)nc1Nc1cc(N2CCC(C(=O)NCCCOCCOCCOCCCNc3ccc([N+](=O)[O-])cc3[N+](=O)[O-])CC2)c2noc3c2c1C(=O)c1ccccc1-3

>  <MEAS VALUE>
39.41

$$$$
>  <SMILES ENTRY>
NS(=O)(=O)c1ccc(Nc2cc(N3CCC(C(=O)NCCCOCCOCCOCCCNc4ccc([N+](=O)[O-])cc4[N+](=O)[O-])CC3)c3noc4c3c2C(=O)c2ccccc2-4)cc1

>  <MEAS VALUE>
71.4

$$$$
>  <SMILES ENTRY>
COc1ccc(Nc2cc(N3CCC(C(=O)NCCCOCCOCCOCCCNc4ccc([N+](=O)[O-])cc4[N+](=O)[O-])CC3)c3noc4c3c2C(=O)c2ccccc2-4)c(S(=O)(=O)O)c1

>  <MEAS VALUE>
0.28

$$$$
>  <SMILES ENTRY>
COC(=O)c1ccc(Nc2cc(N3CCC(C(=O)NCCCOCCOCCOCCCNc4ccc([N+](=O)[O-])cc4[N+](=O)[O-])CC3)c3noc4c3c2C(=O)c2ccccc2-4)c(Cl)c1

>  <MEAS VALUE>
71.4

$$$$
>  <SMILES ENTRY>
COC(=O)c1cc(OC)ccc1Nc1cc(N2CCC(C(=O)NCCCOCCOCCOCCCNc3ccc([N+](=O)[O-])cc3[N+](=O)[O-])CC2)c2noc3c2c1C(=O)c1ccccc1-3

>  <MEAS VALUE>
>31

$$$$

###

- SYSTEM NAME: recombinant uPAR (Homo sapiens)
- Construct: purchased R&D systems
- ASSAY INFO: Competitive ELISA uPAR binding assay (displacement of uPAR from immobilized urokinase)
- ASSAY SETUP: relative to control 6-ABT-1
PROPERTY: Ratio of IC50 (Compound)/IC50 6-ABT-1

>  <SMILES ENTRY>
O=C(O)c1cc(Cl)ccc1Nc1cc(N2CCC(C(=O)NCCCOCCOCCOCCCNc3ccc([N+](=O)[O-])cc3[N+](=O)[O-])CC2)c2noc3c2c1C(=O)c1ccccc1-3

>  <CENSORING OPERATOR>
=

>  <MEAS VALUE>
0.98

$$$$
>  <SMILES ENTRY>
COC(=O)c1ccc(Nc2cc(N3CCC(C(=O)NCCCOCCOCCOCCCNc4ccc([N+](=O)[O-])cc4[N+](=O)[O-])CC3)c3noc4c3c2C(=O)c2ccccc2-4)c(C(=O)OC)c1

>  <CENSORING OPERATOR>
>

>  <MEAS VALUE>
56

$$$$
>  <SMILES ENTRY>
COC(=O)c1cc(Nc2cc(N3CCC(C(=O)NCCCOCCOCCOCCCNc4ccc([N+](=O)[O-])cc4[N+](=O)[O-])CC3)c3noc4c3c2C(=O)c2ccccc2-4)nn1C

>  <CENSORING OPERATOR>
=

>  <MEAS VALUE>
71.4

$$$$
>  <SMILES ENTRY>
COC(=O)c1ccc(Nc2cc(N3CCC(C(=O)NCCCOCCOCCOCCCNc4ccc([N+](=O)[O-])cc4[N+](=O)[O-])CC3)c3noc4c3c2C(=O)c2ccccc2-4)cc1

>  <CENSORING OPERATOR>
=

>  <MEAS VALUE>
71.4

$$$$
>  <SMILES ENTRY>
O=C1c2ccccc2-c2onc3c(N4CCC(C(=O)NCCCOCCOCCOCCCNc5ccc([N+](=O)[O-])cc5[N+](=O)[O-])CC4)cc(Nc4cc(C5CC5)no4)c1c23

>  <CENSORING OPERATOR>
=

>  <MEAS VALUE>
12.85

$$$$

###

- SYSTEM NAME: recombinant uPAR (Homo sapiens)
- ASSAY INFO: Competitive ELISA uPAR binding assay (displacement of uPAR from immobilized urokinase)
- ASSAY SETUP: ELISA assay, competition with urokinase for recombinant uPAR
PROPERTY: IC50

>  <SMILES ENTRY>
O=C(O)c1cc(Cl)ccc1Nc1cc(N2CCC(C(=O)NCCCOCCOCCOCCCNc3ccc([N+](=O)[O-])cc3[N+](=O)[O-])CC2)c2noc3c2c1C(=O)c1ccccc1-3

>  <PROPERTY>
IC50

>  <MEAS VALUE>
3.09 µM

$$$$
>  <SMILES ENTRY>
NS(=O)(=O)c1ccc(Nc2cc(N3CCC(C(=O)NCCCOCCOCCOCCCNc4ccc([N+](=O)[O-])cc4[N+](=O)[O-])CC3)c3noc4c3c2C(=O)c2ccccc2-4)cc1

>  <PROPERTY>
IC50

>  <MEAS VALUE>
> 100 µM

$$$$
>  <SMILES ENTRY>
COC(=O)c1cc(Nc2cc(N3CCC(C(=O)NCCCOCCOCCOCCCNc4ccc([N+](=O)[O-])cc4[N+](=O)[O-])CC3)c3noc4c3c2C(=O)c2ccccc2-4)nn1C

>  <PROPERTY>
IC50

>  <MEAS VALUE>
> 100 µM

$$$$
>  <SMILES ENTRY>
COC(=O)c1cc(OC)ccc1Nc1cc(N2CCC(C(=O)NCCCOCCOCCOCCCNc3ccc([N+](=O)[O-])cc3[N+](=O)[O-])CC2)c2noc3c2c1C(=O)c1ccccc1-3

>  <PROPERTY>
IC50

>  <MEAS VALUE>
> 100 µM

$$$$

###

- SYSTEM NAME: recombinant uPAR (Homo sapiens)
- Construct: purchased R&D systems
- ASSAY INFO: Competitive ELISA uPAR binding assay (displacement of uPAR from immobilized urokinase)
- ASSAY SETUP: ELISA assay, competition with urokinase for recombinant uPAR

>  <SMILES ENTRY>
O=C1c2ccccc2-c2onc3c(N4CCC(C(=O)NCCCOCCOCCOCCCNc5ccc([N+](=O)[O-])cc5[N+](=O)[O-])CC4)cc(Nc4cc(C5CC5)no4)c1c23

>  <VALUE UNIT>
µM

>  <CENSORING OPERATOR>
=

>  <Ki>
0.371

$$$$
>  <SMILES ENTRY>
O=C(O)c1cc(Cl)ccc1Nc1cc(N2CCC(C(=O)NCCCOCCOCCOCCCNc3ccc([N+](=O)[O-])cc3[N+](=O)[O-])CC2)c2noc3c2c1C(=O)c1ccccc1-3

>  <VALUE UNIT>
µM

>  <CENSORING OPERATOR>
=

>  <Ki>
0.0635

$$$$
>  <SMILES ENTRY>
COC(=O)c1cc(OC)ccc1Nc1cc(N2CCC(C(=O)NCCCOCCOCCOCCCNc3ccc([N+](=O)[O-])cc3[N+](=O)[O-])CC2)c2noc3c2c1C(=O)c1ccccc1-3

>  <VALUE UNIT>
µM

>  <CENSORING OPERATOR>
>

>  <Ki>
2

$$$$

###

- SYSTEM NAME: recombinant uPAR (Homo sapiens, UniProt Q03405)
- Sequence (Q03405 23-305): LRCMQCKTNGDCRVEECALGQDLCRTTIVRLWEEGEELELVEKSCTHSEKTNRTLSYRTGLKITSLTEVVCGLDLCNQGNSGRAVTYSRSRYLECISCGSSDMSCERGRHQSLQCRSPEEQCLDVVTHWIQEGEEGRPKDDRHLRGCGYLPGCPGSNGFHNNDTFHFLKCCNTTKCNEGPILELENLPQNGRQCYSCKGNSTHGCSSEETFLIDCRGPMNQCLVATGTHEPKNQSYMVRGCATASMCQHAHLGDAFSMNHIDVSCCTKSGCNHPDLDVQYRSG
- ASSAY INFO: Competitive ELISA uPAR binding assay (displacement of uPAR from immobilized urokinase)
- ASSAY SETUP: ELISA assay, competition with urokinase for recombinant uPAR
pIC50: −log10 of the molar value.

>  <MOLECULE>
O=C1c2ccccc2-c2onc3c(N4CCC(C(=O)NCCCOCCOCCOCCCNc5ccc([N+](=O)[O-])cc5[N+](=O)[O-])CC4)cc(Nc4cc(C5CC5)no4)c1c23 [ARM-U2 derivative 15-ABT-5]

>  <SYSTEM NAME>
recombinant uPAR (Homo sapiens, UniProt Q03405)

>  <CENSORING OPERATOR>
=

>  <pIC50>
4.74

$$$$
>  <MOLECULE>
O=C1c2ccccc2-c2onc3c(N4CCC(C(=O)NCCCOCCOCCOCCCNc5ccc([N+](=O)[O-])cc5[N+](=O)[O-])CC4)cc(Nc4cc(S(=O)(=O)O)ccc4S(=O)(=O)O)c1c23 [ARM-U2 derivative 19-ABT-5]

>  <SYSTEM NAME>
recombinant uPAR (Homo sapiens, UniProt Q03405)

>  <CENSORING OPERATOR>
=

>  <pIC50>
5.59

$$$$
>  <MOLECULE>
COC(=O)c1ccc(Nc2cc(N3CCC(C(=O)NCCCOCCOCCOCCCNc4ccc([N+](=O)[O-])cc4[N+](=O)[O-])CC3)c3noc4c3c2C(=O)c2ccccc2-4)cc1 [ARM-U2 derivative 10-ABT-5]

>  <SYSTEM NAME>
recombinant uPAR (Homo sapiens, UniProt Q03405)

>  <CENSORING OPERATOR>
<

>  <pIC50>
4.00

$$$$
>  <MOLECULE>
COC(=O)c1ccc(Nc2cc(N3CCC(C(=O)NCCCOCCOCCOCCCNc4ccc([N+](=O)[O-])cc4[N+](=O)[O-])CC3)c3noc4c3c2C(=O)c2ccccc2-4)c(C(=O)OC)c1 [ARM-U2 derivative 11-ABT-5]

>  <SYSTEM NAME>
recombinant uPAR (Homo sapiens, UniProt Q03405)

>  <CENSORING OPERATOR>
<

>  <pIC50>
4.00

$$$$
>  <MOLECULE>
COC(=O)c1ccc(Nc2cc(N3CCC(C(=O)NCCCOCCOCCOCCCNc4ccc([N+](=O)[O-])cc4[N+](=O)[O-])CC3)c3noc4c3c2C(=O)c2ccccc2-4)c(Cl)c1 [ARM-U2 derivative 12-ABT-5]

>  <SYSTEM NAME>
recombinant uPAR (Homo sapiens, UniProt Q03405)

>  <CENSORING OPERATOR>
<

>  <pIC50>
4.00

$$$$
